Test: Antiinflammatory activity in PMA-differentiated human U937 cells assessed as inhibition of LPS-stimulated IL-1beta secretion at 250 uM preincubated for 2 hrs followed by LPS-stimulation measured after 24 hrs by ELISA relative to control
Assay type: functional
Settings: U-937
Endpoint name: inhibition at 250 µM (%)
Provide the reading as a plain figure in %.

1. COc1cc(C(O)C(=O)O)ccc1O (centres undefined)    8
2. COc1cc(Cc2ccc(O)c(OC)c2)ccc1O    33.4
3. COc1cc(C(CO)C(c2ccc(O)c(OC)c2)c2ccc(O)c(OC)c2)ccc1O (centres undefined)    9.4
4. COc1cc(CCO)ccc1O    17.4
5. CCOC(=O)C(=C(c1ccc(O)c(OC)c1)c1ccc(O)c(OC)c1)c1ccc(O)c(OC)c1    85.2

The record that follows has no inhibition at 250 µM shown yet.
Reported inhibition at 250 µM for CCOC(=O)C(O)c1ccc(O)c(OC)c1 (centres undefined) was 0

###

Assay: Antiinflammatory activity in PMA-differentiated human U937 cells assessed as inhibition of LPS-stimulated IL-8 secretion at 250 uM preincubated for 2 hrs followed by LPS-stimulation measured after 24 hrs by ELISA relative to control
Format: functional
Details: U-937
Endpoint name: inhibition at 250 µM

1. CCOC(=O)Cc1ccc(O)c(OC)c1    0%

// inhibition at 250 µM lookup, compound = COc1cc(Cc2ccc(O)c(OC)c2)ccc1O , result: 15%

Entry COc1cc(CC(=O)O)ccc1O ; inhibition at 250 µM = 0%

compound CCOC(=O)C(c1ccc(O)c(OC)c1)C(c1ccc(O)c(OC)c1)c1ccc(O)c(OC)c1 (centres undefined) , inhibition at 250 µM observed: 95%

COc1cc(C(O)C(=O)O)ccc1O (centres undefined) yielded inhibition at 250 µM of 0%

Note to self: inhibition at 250 µM recorded for COc1cc(CCO)ccc1O was 0%

The compound listed as CCOC(=O)C(O)c1ccc(O)c(OC)c1 (centres undefined) shows inhibition at 250 µM equal to 0%

Entry COc1cc(C(CO)C(c2ccc(O)c(OC)c2)c2ccc(O)c(OC)c2)ccc1O (centres undefined) — recorded inhibition at 250 µM = 0%

get_value(item= CCOC(=O)C(=C(c1ccc(O)c(OC)c1)c1ccc(O)c(OC)c1)c1ccc(O)c(OC)c1 , readout=inhibition at 250 µM) returns 99.7%

###

Test: Antiinflammatory activity in PMA-differentiated human U937 cells assessed as inhibition of LPS-stimulated IL-1beta secretion at 125 uM preincubated for 2 hrs followed by LPS-stimulation measured after 24 hrs by ELISA relative to control
Format: functional
Settings: U-937
Outcome label depends on inhibition at 125 µM relative to 3%: at/above gives rule met, below gives rule not met.

Please review the following examples before continuing.
1. COc1cc(CCO)ccc1O    rule met
2. COc1cc(C(CO)C(c2ccc(O)c(OC)c2)c2ccc(O)c(OC)c2)ccc1O (centres undefined)    rule met
3. CCOC(=O)Cc1ccc(O)c(OC)c1    rule not met
4. CCOC(=O)C(O)c1ccc(O)c(OC)c1 (centres undefined)    rule met
5. CCOC(=O)C(=C(c1ccc(O)c(OC)c1)c1ccc(O)c(OC)c1)c1ccc(O)c(OC)c1    rule met

Check this molecule for inhibition at 125 µM at or above 3%: COc1cc(C(O)C(=O)O)ccc1O (centres undefined)
rule met

Determine whether measured inhibition at 125 µM meets or exceeds 3% for COc1cc(CC(=O)O)ccc1O [HOMOVANILLIC ACID]
rule met

Is inhibition at 125 µM for CCOC(=O)C(c1ccc(O)c(OC)c1)C(c1ccc(O)c(OC)c1)c1ccc(O)c(OC)c1 (centres undefined) at or above 3%?
rule not met

###

Experiment: Antiinflammatory activity in human U937-3xkB-luc cells assessed as inhibition of LPS-induced NFkappaB activation at 100 uM preincubated for 30 mins followed by LPS-stimulation measured after 6 hrs by luciferase assay relative to control
Assay type: functional
Settings: U-937
Note to self: values exactly at 20% are T. So inhibition at 100 µM at or above 20% is T, below is F.

Study these solved cases before continuing.
1) COc1cc(CCO)ccc1O    F
2) CCOC(=O)C(O)c1ccc(O)c(OC)c1 (centres undefined)    F
3) CCOC(=O)Cc1ccc(O)c(OC)c1    F
4) COc1cc(Cc2ccc(O)c(OC)c2)ccc1O    T
5) COc1cc(CC(=O)O)ccc1O [HOMOVANILLIC ACID]    T

Check this molecule for inhibition at 100 µM at or above 20%: CCOC(=O)C(=C(c1ccc(O)c(OC)c1)c1ccc(O)c(OC)c1)c1ccc(O)c(OC)c1
T

###

Catalogue of molecules with associated inhibition at 250 µM
Assay: Antiinflammatory activity in PMA-differentiated human U937 cells assessed as inhibition of LPS-stimulated IL-6 secretion at 250 uM preincubated for 2 hrs followed by LPS-stimulation measured after 24 hrs by ELISA relative to control
Format: functional
Conditions: U-937
Dear colleague, please return just the value in %, with no unit written.

These solved cases illustrate the format of a correct answer.
1. COc1cc(CCO)ccc1O    0
2. COc1cc(C(CO)C(c2ccc(O)c(OC)c2)c2ccc(O)c(OC)c2)ccc1O (stereo not drawn)    62.6

Could you now look at the following molecule, please?
# inhibition at 250 µM of CCOC(=O)C(=C(c1ccc(O)c(OC)c1)c1ccc(O)c(OC)c1)c1ccc(O)c(OC)c1 = 99.9

###

Entries and their inhibition at 500 µM
Assay: Antiinflammatory activity in PMA-differentiated human U937 cells assessed as inhibition of LPS-stimulated IL-1beta secretion at 500 uM preincubated for 2 hrs followed by LPS-stimulation measured after 24 hrs by ELISA relative to control
Format: functional
Settings: U-937
Give the value in % but do not write % after it.

1) CCOC(=O)C(=C(c1ccc(O)c(OC)c1)c1ccc(O)c(OC)c1)c1ccc(O)c(OC)c1    83.9
2) CCOC(=O)C(c1ccc(O)c(OC)c1)C(c1ccc(O)c(OC)c1)c1ccc(O)c(OC)c1 (stereo unspecified)    91.4
3) CCOC(=O)C(O)c1ccc(O)c(OC)c1 (stereo unspecified)    0

# inhibition at 500 µM of COc1cc(Cc2ccc(O)c(OC)c2)ccc1O = 49.2

Reported inhibition at 500 µM of COc1cc(CCO)ccc1O : 11.3

Notebook: COc1cc(C(CO)C(c2ccc(O)c(OC)c2)c2ccc(O)c(OC)c2)ccc1O (stereo unspecified) , inhibition at 500 µM read as 0.9

###

Assay: Cytotoxicity against PMA-differentiated human U937 macrophages assessed as reduction in cell viability after 24 hrs by MTT assay
Format: cell-based
Details: u-937, 24 h
Endpoint name: Activity (µM)
Response body: numeric value in µM, unit text excluded.

Past entries and their recorded results:
1. COc1cc(Cc2ccc(O)c(OC)c2)ccc1O    500
2. COc1cc(C(CO)C(c2ccc(O)c(OC)c2)c2ccc(O)c(OC)c2)ccc1O (centres undefined)    500
3. CCOC(=O)C(=C(c1ccc(O)c(OC)c1)c1ccc(O)c(OC)c1)c1ccc(O)c(OC)c1    62.5

Activity reading for CCOC(=O)C(c1ccc(O)c(OC)c1)C(c1ccc(O)c(OC)c1)c1ccc(O)c(OC)c1 (centres undefined) : 125

###

Assay: Antiinflammatory activity in human U937-3xkB-luc cells assessed as inhibition of LPS-induced NFkappaB activation at 20 uM preincubated for 30 mins followed by LPS-stimulation measured after 6 hrs by luciferase assay relative to control
Format: functional
Settings: U-937
Criterion: inhibition at 20 µM meeting or surpassing 10%. Met: criterion met. Not met: criterion not met.

Here's what some known entries look like.
1) COc1cc(Cc2ccc(O)c(OC)c2)ccc1O    criterion met
2) CCOC(=O)Cc1ccc(O)c(OC)c1    criterion met

Check if inhibition at 20 µM >= 10% (inclusive). Item: COc1cc(C(O)C(=O)O)ccc1O (centres undefined)
criterion not met

Say whether CCOC(=O)C(O)c1ccc(O)c(OC)c1 (centres undefined) shows inhibition at 20 µM of 10% or more.
criterion not met

Given the entry COc1cc(CCO)ccc1O , answer whether its inhibition at 20 µM meets or surpasses 10%.
criterion not met

Is inhibition at 20 µM for CCOC(=O)C(=C(c1ccc(O)c(OC)c1)c1ccc(O)c(OC)c1)c1ccc(O)c(OC)c1 at or above 10%?
criterion met

Threshold query (inhibition at 20 µM >= 10%) on COc1cc(CC(=O)O)ccc1O [HOMOVANILLIC ACID]
criterion met

Answer whether inhibition at 20 µM of CCOC(=O)C(c1ccc(O)c(OC)c1)C(c1ccc(O)c(OC)c1)c1ccc(O)c(OC)c1 (centres undefined) is greater than or equal to 10%.
criterion met

Does the compound COc1cc(C(CO)C(c2ccc(O)c(OC)c2)c2ccc(O)c(OC)c2)ccc1O (centres undefined) have recorded inhibition at 20 µM that is 10% or more?
criterion met
